- Experiment description: PK oral bioavailability experiment, rat
- Assay type: in vivo, male Wistar rat
- Run parameters: male, Wistar, plasma, 5 mg/kg oral vs 1 mg/kg intravenous
Experimental readout: bioavailability
Returns: string containing the numeric result and its unit.

## Task Can you look up the measured bioavailability of O=c1[nH]c(-c2c[nH]c3cc(F)c(-c4ccc(C5(O)CCC5)cc4)c(F)c23)no1 [Compound I-11] for me?
## Result 6%

###

- Experiment description: in vivo
- Format: in vivo
- Run parameters: male, Beagle, plasma; dog; 5 mg/kg oral compared with intravenous infusion (1 mg/kg)
- Procedure: A total of 3 animals were segregated in to one group and each animal received oral dose followed by intravenous infusion (15 minutes) as a cross over design with 7 days of no dose interval between periods. […] Similarly, in period 2 after 7 days of no dose interval, animals were received intravenous infusion for 15 min at a dose of 1 mg/kg via saphenous vein at a dose volume of 1 mL/kg, each dog was observed after administration of the test item for presence or absence of clinical signs. […]
Experimental readout: bioavailability (%)
Your answer should be a plain number; it is taken to be in %.

## Task Can you look up the measured bioavailability of `O=c1[nH]c(-c2c[nH]c3cc(F)c(-c4ccc(C5(O)CCC5)cc4)c(F)c23)no1` for me?
## Result 5.27

###

- Experiment description: Plasma and tissue concentration in high fat diet mice, day 36
- Type: in vivo, mice (Mus musculus—C57BL-6)
- Run parameters: male, C57BL-6, mouse, adipose tissue (abdominal fat), oral, 50 mg/kg, 3 hr, read-out: Adipose tissue (abdominal fat)
Experimental readout: concentration at 3 h
Returns: string containing the numeric result and its unit.

## Task Can you look up the measured concentration at 3 h of O=c1[nH]c(-c2c[nH]c3cc(F)c(-c4ccc(C5(O)CCC5)cc4)c(F)c23)no1 [Compound I-11] for me?
## Result 1590 ng/mL

###

- Experiment description: Plasma and tissue concentration in high fat diet mice, day 36
- Assay type: in vivo, mice (Mus musculus—C57BL-6)
- Run parameters: male, C57BL-6, mouse, jejunum, oral, 50 mg/kg, 1 hr, read-out: Jejunum
Experimental readout: concentration at 1 h (ng/mL)
Your answer should be a plain number; it is taken to be in ng/mL.

## Task Can you look up the measured concentration at 1 h of O=c1[nH]c(-c2c[nH]c3cc(F)c(-c4ccc(C5(O)CCC5)cc4)c(F)c23)no1 [Compound I-11] for me?
## Result 4390

###

- Experiment description: Plasma and tissue concentration in high fat diet mice, day 36
- Type: in vivo, mice (Mus musculus—C57BL-6)
- Run parameters: male, C57BL-6, mouse, heart, oral, 30 mg/kg, 4 hr, read-out: Heart
Experimental readout: concentration at 4 h

## Task Can you look up the measured concentration at 4 h of O=c1[nH]c(-c2c[nH]c3cc(F)c(-c4ccc(C5(O)CCC5)cc4)c(F)c23)no1 [Compound I-11] for me?
## Result 31 ng/mL

###

- Experiment description: Plasma and tissue concentration in high fat diet mice, day 36
- Type: in vivo, mice (Mus musculus—C57BL-6)
- Run parameters: male, C57BL-6, mouse, heart, oral, 50 mg/kg, 1 hr, read-out: Heart
Experimental readout: concentration at 1 h (ng/mL)
Your answer should be a plain number; it is taken to be in ng/mL.

## Task Can you look up the measured concentration at 1 h of `O=c1[nH]c(-c2c[nH]c3cc(F)c(-c4ccc(C5(O)CCC5)cc4)c(F)c23)no1` for me?
## Result 52

###

- Experiment description: Plasma and tissue concentration in high fat diet mice, day 36
- Assay type: in vivo, mice (Mus musculus—C57BL-6)
- Run parameters: male, C57BL-6, mouse, jejunum, oral, 50 mg/kg, 4 hr, read-out: Jejunum
Experimental readout: concentration at 4 h (ng/mL)
Your answer should be a plain number; it is taken to be in ng/mL.

## Task Can you look up the measured concentration at 4 h of O=c1[nH]c(-c2c[nH]c3cc(F)c(-c4ccc(C5(O)CCC5)cc4)c(F)c23)no1 [Compound I-11] for me?
## Result 55

###

- Experiment description: Plasma and tissue concentration in high fat diet mice, day 36
- Type: in vivo, mice (Mus musculus—C57BL-6)
- Run parameters: male, C57BL-6, mouse, heart, oral, 30 mg/kg, 3 hr, read-out: Heart
Experimental readout: concentration at 3 h (ng/mL)
Your answer should be a plain number; it is taken to be in ng/mL.

## Task Can you look up the measured concentration at 3 h of `O=c1[nH]c(-c2c[nH]c3cc(F)c(-c4ccc(C5(O)CCC5)cc4)c(F)c23)no1` for me?
## Result 32

###

- Experiment description: Plasma and tissue concentration in high fat diet mice, day 36
- Assay type: in vivo, mice (Mus musculus—C57BL-6)
- Run parameters: male, C57BL-6, mouse, adipose tissue (abdominal fat), oral, 50 mg/kg, 1 hr, read-out: Adipose tissue (abdominal fat)
Experimental readout: concentration at 1 h (ng/mL)
Your answer should be a plain number; it is taken to be in ng/mL.

## Task Can you look up the measured concentration at 1 h of `O=c1[nH]c(-c2c[nH]c3cc(F)c(-c4ccc(C5(O)CCC5)cc4)c(F)c23)no1` for me?
## Result 2000

###

- Tested on: AMPK (A2/B1/G1) (Homo sapiens, UniProt P54619+P54646+Q9Y478)
- Sequence (P54619 whole entry, one chain of several): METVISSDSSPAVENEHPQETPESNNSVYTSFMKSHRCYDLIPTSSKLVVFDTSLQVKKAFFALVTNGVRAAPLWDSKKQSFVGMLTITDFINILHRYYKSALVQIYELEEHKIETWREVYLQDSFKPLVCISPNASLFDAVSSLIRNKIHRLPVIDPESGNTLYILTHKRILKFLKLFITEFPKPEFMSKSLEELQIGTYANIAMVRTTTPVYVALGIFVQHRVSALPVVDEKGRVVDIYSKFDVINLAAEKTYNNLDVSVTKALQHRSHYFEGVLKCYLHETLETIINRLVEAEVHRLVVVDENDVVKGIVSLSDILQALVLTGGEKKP
- Experiment description: AMPK kinase binding activity in activation mode (AC50)
- Format: biochemical
Please respond with reported AC50 for every item in the list.

## Task For AMPK (A2/B1/G1) (Homo sapiens, UniProt P54619+P54646+Q9Y478), provide AC50 of `O=c1[nH]c(-c2c[nH]c3cc(Cl)c(-c4ccc(C5(O)CCC5)cc4)cc23)no1` please.
## Result 0.01 to 0.5 µM

## Task For AMPK (A2/B1/G1) (Homo sapiens, UniProt P54619+P54646+Q9Y478), provide AC50 of `COc1ncccc1-c1cc2c(-c3noc(=O)[nH]3)c[nH]c2cc1F` please.
## Result 0.01 to 0.5 µM

## Task For AMPK (A2/B1/G1) (Homo sapiens, UniProt P54619+P54646+Q9Y478), provide AC50 of `O=c1[nH]c(-c2c[nH]c3cc(F)c(-c4ccc(C5(O)COC5)nc4)cc23)no1` please.
## Result 7.5 to 20 µM

## Task For AMPK (A2/B1/G1) (Homo sapiens, UniProt P54619+P54646+Q9Y478), provide AC50 of `O=c1[nH]c(-c2c[nH]c3ccc(N4CC[C@H](O)C4)cc23)no1` please.
## Result 5 to 7.5 µM

###

- Experiment description: Plasma and tissue concentration in high fat diet mice, day 36
- Type: in vivo, mice (Mus musculus—C57BL-6)
- Run parameters: male, C57BL-6, mouse, jejunum, oral, 30 mg/kg, 3 hr, read-out: Jejunum
Experimental readout: concentration at 3 h
Returns: string containing the numeric result and its unit.

## Task Can you look up the measured concentration at 3 h of `O=c1[nH]c(-c2c[nH]c3cc(F)c(-c4ccc(C5(O)CCC5)cc4)c(F)c23)no1` for me?
## Result 35 ng/mL

###

- Experiment description: Plasma, liver and adipose tissue concentration in db/db mice, day 36
- Format: in vivo, mice (Mus musculus; db/db C57BL/6)
- Run parameters: male, db/db C57BL/6, mouse, adipose tissue, oral; 30 mg/kg; post 4 hours dosing on day 36; read-out: Adipose tissue (ng/mL), PK concentration, Average
Experimental readout: concentration at 4 h (ng/mL)
Your answer should be a plain number; it is taken to be in ng/mL.

## Task Can you look up the measured concentration at 4 h of `O=c1[nH]c(-c2c[nH]c3cc(F)c(-c4ccc(C5(O)CCC5)cc4)c(F)c23)no1` for me?
## Result 19.5

###

- Experiment description: Plasma and tissue concentration in high fat diet mice, day 36
- Type: in vivo, mice (Mus musculus—C57BL-6)
- Run parameters: male, C57BL-6, mouse, adipose tissue (abdominal fat), oral, 30 mg/kg, 1 hr, read-out: Adipose tissue (abdominal fat)
Experimental readout: concentration at 1 h

## Task Can you look up the measured concentration at 1 h of `O=c1[nH]c(-c2c[nH]c3cc(F)c(-c4ccc(C5(O)CCC5)cc4)c(F)c23)no1` for me?
## Result 57 ng/mL

###

- Tested on: AMPK (A2/B1/G3) (Homo sapiens, UniProt P54646+Q9UGI9+Q9Y478)
- Sequence (P54646 whole entry): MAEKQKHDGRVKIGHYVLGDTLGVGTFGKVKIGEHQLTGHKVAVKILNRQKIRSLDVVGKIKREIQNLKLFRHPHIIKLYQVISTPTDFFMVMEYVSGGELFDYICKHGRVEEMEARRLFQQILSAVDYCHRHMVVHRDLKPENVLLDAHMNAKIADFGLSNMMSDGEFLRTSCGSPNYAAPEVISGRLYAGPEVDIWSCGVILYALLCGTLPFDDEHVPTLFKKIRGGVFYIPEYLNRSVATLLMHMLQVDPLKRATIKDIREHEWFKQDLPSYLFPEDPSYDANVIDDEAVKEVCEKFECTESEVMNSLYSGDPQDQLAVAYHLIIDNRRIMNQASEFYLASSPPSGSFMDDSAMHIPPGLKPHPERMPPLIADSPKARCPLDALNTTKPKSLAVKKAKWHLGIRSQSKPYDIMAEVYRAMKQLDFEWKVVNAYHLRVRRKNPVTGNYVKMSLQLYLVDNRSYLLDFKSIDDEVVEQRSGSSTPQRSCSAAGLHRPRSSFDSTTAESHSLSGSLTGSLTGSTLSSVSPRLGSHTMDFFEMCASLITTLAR
- Sequence (Q9Y478 whole entry): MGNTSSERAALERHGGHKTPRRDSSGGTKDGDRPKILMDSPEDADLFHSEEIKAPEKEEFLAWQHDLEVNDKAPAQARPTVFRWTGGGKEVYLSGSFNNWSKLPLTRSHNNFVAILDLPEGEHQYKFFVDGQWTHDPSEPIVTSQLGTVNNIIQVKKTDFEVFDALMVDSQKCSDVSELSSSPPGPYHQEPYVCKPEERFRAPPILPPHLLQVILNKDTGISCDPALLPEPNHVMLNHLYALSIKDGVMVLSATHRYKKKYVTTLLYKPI
- Sequence (Q9UGI9 whole entry): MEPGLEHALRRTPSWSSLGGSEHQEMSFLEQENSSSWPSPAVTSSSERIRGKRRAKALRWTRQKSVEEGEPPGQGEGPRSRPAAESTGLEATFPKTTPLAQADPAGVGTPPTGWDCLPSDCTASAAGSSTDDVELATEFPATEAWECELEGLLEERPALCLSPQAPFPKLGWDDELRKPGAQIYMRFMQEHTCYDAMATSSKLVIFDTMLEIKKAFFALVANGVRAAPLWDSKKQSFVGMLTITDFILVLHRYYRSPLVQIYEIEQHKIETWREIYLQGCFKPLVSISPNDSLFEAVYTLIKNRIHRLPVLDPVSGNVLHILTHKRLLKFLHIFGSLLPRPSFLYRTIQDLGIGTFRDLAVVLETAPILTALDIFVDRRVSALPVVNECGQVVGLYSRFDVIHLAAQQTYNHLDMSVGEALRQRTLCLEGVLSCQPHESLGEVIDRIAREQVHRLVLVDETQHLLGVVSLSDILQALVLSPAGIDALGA
- Experiment description: AMPK kinase binding activity in activation mode (AC50)
- Format: biochemical
Experimental readout: AC50

## Task Can you look up the measured AC50 of C[C@@H]1NS(=O)(c2c[nH]c3cc(Cl)c(-c4ccc(C5(O)CCC5)cc4)cc23)=NC1=O (some centres unmarked) for me?
## Result 10 to 500 nM

## Task Can you look up the measured AC50 of C[C@H]1NS(=O)(c2c[nH]c3cc(Cl)c(-c4ccc(C5(O)CCC5)cc4)cc23)=NC1=O (some centres unmarked) for me?
## Result 10 to 500 nM

## Task Can you look up the measured AC50 of `Cc1cc2c(cc1Oc1nc3nc(-c4ccc(C5(O)CCC5)cc4)c(Cl)cc3[nH]1)B(O)OC2` for me?
## Result ≤ 10 nM

## Task Can you look up the measured AC50 of `COc1ncccc1-c1cc2c(-c3noc(=O)[nH]3)c[nH]c2cc1F` for me?
## Result 10 to 500 nM

## Task Can you look up the measured AC50 of `O=P(O)(O)CSc1c[nH]c2ccc(-c3ccc(C4(O)CCC4)cc3)cc12` for me?
## Result 10 to 500 nM

## Task Can you look up the measured AC50 of `O=P(O)(O)CSc1c[nH]c2cc(F)c(-c3ccc(C4(O)CCC4)cc3)cc12` for me?
## Result 10 to 500 nM

## Task Can you look up the measured AC50 of `Cc1ccc(N2CC(=O)NS2(=O)=O)cc1Oc1nc2cc(-c3ccc(C4(O)CCC4)cc3)c(F)cc2[nH]1` for me?
## Result 10 to 500 nM

## Task Can you look up the measured AC50 of `O=c1[nH]c(-c2c[nH]c3cc(F)c(-c4ccc(C5(O)COC5)cc4)nc23)no1` for me?
## Result 5000 to 7500 nM

## Task Can you look up the measured AC50 of `O=c1[nH]c(-c2c[nH]c3cc(Cl)c(-c4ccc(C5(O)CCC5)cc4)cc23)no1` for me?
## Result ≤ 10 nM

## Task Can you look up the measured AC50 of `O=c1[nH]c(-c2c[nH]c3cc(F)c(-c4ccc(C5(O)COC5)cc4)c(F)c23)no1` for me?
## Result ≤ 10 nM

## Task Can you look up the measured AC50 of `O=c1[nH]c(-c2c[nH]c3ncc(-c4ccc(C5(O)CCC5)cc4)cc23)no1` for me?
## Result 10 to 500 nM

## Task Can you look up the measured AC50 of `Cc1ccc(N2CC(=O)NS2(=O)=O)cc1Oc1nc2cc(-c3ccc(C4(O)CCC4)cc3)c(Cl)cc2[nH]1` for me?
## Result 10 to 500 nM

## Task Can you look up the measured AC50 of `COc1ccc(-c2cc3c(-c4noc(=O)[nH]4)c[nH]c3cc2F)cn1` for me?
## Result 500 to 5000 nM

## Task Can you look up the measured AC50 of `Cc1ccc(N2CC(=O)NS2(=O)=O)cc1Oc1nc2nc(-c3ccc(C4(O)CCC4)cc3)c(Cl)cc2[nH]1` for me?
## Result ≤ 10 nM

## Task Can you look up the measured AC50 of `O=c1[nH]c(-c2c[nH]c3cc(F)c(-c4ccc(C5(O)CCC5)cc4)nc23)no1` for me?
## Result 500 to 5000 nM

## Task Can you look up the measured AC50 of `O=P(O)(O)CSc1c[nH]c2cc(F)c(-c3ccc(N4CC[C@H](O)C4)cc3)c(F)c12` for me?
## Result 10 to 500 nM

## Task Can you look up the measured AC50 of `O=P(O)(O)CSc1c[nH]c2cc(F)c(-c3ccc(N4CC[C@H](O)C4)cc3)cc12` for me?
## Result 10 to 500 nM

## Task Can you look up the measured AC50 of `O=P(O)(O)CSc1c[nH]c2cc(F)c(N3CC[C@H](O)C3)c(F)c12` for me?
## Result 10 to 500 nM

## Task Can you look up the measured AC50 of `O=P(O)(O)CSc1c[nH]c2cc(F)c(-c3ccc(C4(O)CCC4)cc3)c(F)c12` for me?
## Result 10 to 500 nM

## Task Can you look up the measured AC50 of `COc1ccc(-c2cc3c(-c4noc(=O)[nH]4)c[nH]c3cc2F)c(OC)n1` for me?
## Result 10 to 500 nM

## Task Can you look up the measured AC50 of `O=c1[nH]c(-c2c[nH]c3cc(F)c(-c4ccc(C5(O)COC5)cc4)cc23)no1` for me?
## Result 10 to 500 nM

## Task Can you look up the measured AC50 of `COc1ccc(-c2c(F)cc3[nH]cc(-c4noc(=O)[nH]4)c3c2F)c(OC)n1` for me?
## Result 500 to 5000 nM

## Task Can you look up the measured AC50 of `O=C1CN(c2c[nH]c3cc(Cl)c(-c4ccc(C5(O)CCC5)cc4)cc23)S(=O)(=O)N1` for me?
## Result ≤ 10 nM

## Task Can you look up the measured AC50 of `O=c1[nH]c(-c2c[nH]c3ccc(-c4ccc(C5(O)CCC5)cc4)cc23)no1` for me?
## Result 10 to 500 nM

## Task Can you look up the measured AC50 of `O=c1[nH]c(-c2c[nH]c3ccc(N4CC[C@H](O)C4)cc23)no1` for me?
## Result 500 to 5000 nM

## Task Can you look up the measured AC50 of `OB1OCc2ccc(-c3c[nH]c4cc(Cl)c(-c5ccc(C6(O)CCC6)cc5)cc34)cc21` for me?
## Result 500 to 5000 nM

Source: patent US20250388571A1
